Attribution: PubChem BioAssay (NCI)

- Test Name: NCI Yeast Anticancer Drug Screen. Data for the rad50 strain (AID 155);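 further: 0% = growth of vehicle-only cultures of the same strain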
- Condition Summary: S. cerevisiae rad50 strain growth inhibition; at 50.0 µM; active compounds read high
About 79,000 compounds went through this panel and 15% of them were active in at least one assay; those are over-represented in the sample as a whole.
Here, each record is paired with measured growth inhibition data.
Experimental Readout: growth inhibition (%)

In [3]: df
Out[3]:
                                   molecule  unit_spec  reported_value
0             CCOc1ccc2nc3cc(I)ccc3c(N)c2c1          %            8.15
1                    C/C(=N/OCCC(=O)O)C1CC1          %           -2.85
2  Nc1nc(-c2ccncc2)cc(-c2cc(-c3ccncc3)nc(N)n2)n1          %            -7.7
3  CC1=C[C@@H]2[C@@H](CC(CO)=C[C@H]3[C@@H]4C(C)(C)[C@]4(OCC(C)C)[C@H](OCC(C)C)[C@@H](C)[C@]23O)C1=O          %           -13.7
4  CC(C)NC(=O)c1ccccc1-[s+]1c2ccccc2c(=O)n1C(C)C (configuration not stated)          %              22
5                 O=[S@@]1Nc2cc3ccccc3cc2S1          %            23.2
6  O=C(Nc1cc(Cl)c(Cl)cc1Cl)OCc1ccc2c(c1)OCO2          %           -12.1

----------
- Test Name: NCI Yeast Anticancer Drug Screen. Data for the mlh1 rad18 strain (AID 175)
- Condition Summary: S. cerevisiae mlh1 rad18 strain growth inhibition; at 50.0 µM; active compounds read high
Compounds without any hit were thinned out: in the full panel of roughly 79,000, 15% have a hit.
Experimental Readout: growth inhibition (%)

In [3]: df
Out[3]:
                                    molecule  unit_spec  reported_value
 0      Nc1nc(N)c(N=Nc2ccc(Cl)cc2)c(=O)[nH]1          %            13.7
 1  CNC(=O)NC(c1cc(OC)c(O)c(OC)c1)c1cc2c(cc1O)OCO2 (configuration not stated)          %            44.6
 2        Cc1nc(N)[nH]c(=O)c1Cc1ccc(Cl)cc1Cl          %            8.55
 3            O=c1[nH]nc(Cc2ccc(Cl)cc2)n1CCO          %           -21.1
 4   CN1CCN(c2nc3c(c(=O)n(C)c(=O)n3C)n2C)CC1          %             6.2
 5                   O=C(O)CNC(=O)NNc1ccccc1          %           -12.7
 6        CC(=O)Nc1c(OC(C)=O)ccc2cc(Br)ccc12          %            8.85
 7         CC(=O)Oc1ccc2c(=O)c(C(C)=O)coc2c1          %            14.7
 8  CS(=O)CCN=Cc1ccc(N=Nc2ccc(O)cc2)cc1 (configuration not stated)          %            2.65
 9  CC1CCc2ccccc2N1C(=O)c1cccc([N+](=O)[O-])c1C(=O)O (configuration not stated)          %             5.5
10  O=c1c2ccccc2n2c(-c3ccc(O)cc3)nnc2n1-c1ccccc1          %           -14.8
11  O=c1[nH]c2ccccc2nc1/C=C/n1c(=S)[nH]c2ccccc21          %           -20.7
